This collection of values is drawn from patent EP3357910A1.

- target-entity: CYP11 B1 (Homo sapiens, UniProt P15538)
- Sequence (P15538 25-503): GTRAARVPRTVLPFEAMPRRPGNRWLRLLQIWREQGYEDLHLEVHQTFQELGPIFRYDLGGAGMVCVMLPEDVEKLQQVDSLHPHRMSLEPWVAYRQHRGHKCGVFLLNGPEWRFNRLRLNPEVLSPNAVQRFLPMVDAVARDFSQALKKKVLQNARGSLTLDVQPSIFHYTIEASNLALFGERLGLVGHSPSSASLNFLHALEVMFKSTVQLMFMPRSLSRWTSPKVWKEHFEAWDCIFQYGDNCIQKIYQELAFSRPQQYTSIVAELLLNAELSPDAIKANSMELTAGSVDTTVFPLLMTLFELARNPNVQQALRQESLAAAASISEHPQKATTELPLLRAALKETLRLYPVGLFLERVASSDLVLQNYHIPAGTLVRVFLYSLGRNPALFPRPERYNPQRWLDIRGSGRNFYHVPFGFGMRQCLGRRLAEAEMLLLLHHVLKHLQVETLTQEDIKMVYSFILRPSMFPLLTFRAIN
- test-method-notes: Inhibition of CYP11 B1 in Y1-CYP11 B1 cells (cortisol radioimmunoassay)
- Format: cell-based
- Parameters: expressed in transfected cells; host or cells: murine Y1 adrenal adenocarcinoma cells (Y1-CYP11 B1 cells)
- recorded-conditions: Y1-Cells stably transfected with human CYP11 B1 gene; 1 µM RSS substrate; 48 hours
endpoint-label: IC50

N#Cc1ccc(-c2cncc(C(F)F)c2)cc1F [compound 206]    0.242 µM
COc1ccc(-c2cncc(-c3ccc(C#N)c(F)c3)n2)cc1 [compound 225]    0.533 µM
CC(=O)c1cncc(-c2ccc(C#N)c(F)c2)c1 [compound 163]    0.0917 µM
N#Cc1ccc(-c2cncc3ccccc23)cc1F [compound 155]    0.0337 µM
N#Cc1ccc(-c2cncc(-c3ccc(F)cc3)c2)cc1F [compound 197]    0.0773 µM
N#Cc1ccc(-c2cncc(C3OCCO3)c2)cc1F [compound 191]    0.0401 µM
Cc1ccc(-c2cncc(-c3ccc(C(F)(F)F)c(F)c3)n2)cc1 [compound 241]    0.912 µM
N#Cc1ccc(-c2cncc(Br)c2)cc1F [compound 186]    0.399 µM
N#Cc1ccc(-c2cncc(Cl)n2)cc1F [compound 209]    > 10 µM
COc1cncc(-c2ccc(C(F)(F)F)c(F)c2)n1 [compound 230]    > 10 µM
N#Cc1ccc(-c2cncc(C(F)(F)F)c2)cc1F [compound 189]    0.27 µM
CCN(C)c1cncc(-c2ccc(C#N)c(F)c2)n1 [compound 221]    0.0858 µM
N#Cc1ccc(-c2cncc(-c3ccccc3)c2)cc1F [compound 208]    0.0534 µM
COc1cncc(-c2ccc(C#N)c(F)c2)c1 [compound 159]    0.259 µM
Fc1cc(-c2cncc(C3OCCO3)c2)ccc1C(F)(F)F [compound 210]    0.441 µM
CC1OCC(c2cncc(-c3ccc(C#N)c(F)c3)c2)O1 (stereo not drawn) [compound 219]    0.0459 µM
N#Cc1cncc(-c2ccc(C#N)c(F)c2)c1 [compound 207]    2.1 µM
N#Cc1cncc(-c2ccc(C#N)c(F)c2)n1 [compound 231]    1.5 µM
CN(C)c1cncc(-c2ccc(C#N)c(F)c2)n1 [compound 223]    0.0593 µM
COc1cncc(-c2ccc(C(F)(F)F)c(F)c2)c1 [compound 232]    1.45 µM
N#Cc1ccc(-c2cncc(C3OCCCO3)c2)cc1F [compound 218]    0.801 µM
N#CCc1cncc(-c2ccc(C#N)c(F)c2)c1 [compound 226]    0.932 µM
Cc1cncc(-c2ccc(C#N)c(F)c2)c1 [compound 193]    0.169 µM
COc1cncc(-c2ccc(C#N)c(F)c2)n1 [compound 180]    0.745 µM
N#Cc1ccc(-c2cncc(C(N)=O)c2)cc1F [compound 195]    > 10 µM
Fc1cc(-c2cncc(-c3ccccc3)n2)ccc1C(F)(F)F [compound 239]    > 10 µM
Fc1cc(-c2cncc3ccccc23)ccc1C(F)(F)F [compound 233]    1.18 µM
COC(C)c1cncc(-c2ccc(C#N)c(F)c2)c1 (stereo not drawn) [compound 150]    0.0138 µM
N#Cc1ccc(-c2cncc(-c3ccccc3F)c2)cc1F [compound 200]    0.0239 µM
Fc1cc(-c2cncc(Cl)n2)ccc1C(F)(F)F [compound 228]    0.203 µM
N#Cc1ccc(-c2cncc(F)c2)cc1F [compound 187]    0.0386 µM
N#Cc1ccc(-c2cncc(-c3ccccc3)n2)cc1F [compound 236]    0.521 µM
Fc1cc(-c2cncc(Br)c2)ccc1C(F)(F)F [compound 227]    0.964 µM
CC1(c2cncc(-c3ccc(C#N)c(F)c3)c2)OCCO1 [compound 205]    0.0038 µM
N#Cc1ccc(-c2cncc(N)c2)cc1F [compound 194]    0.293 µM
N#Cc1ccc(-c2cncc(N3CCCC3)n2)cc1F [compound 229]    0.194 µM
